system: 786-0 renal; experiment: NCI-60 one-dose screen, 48 h; conditions: 10 µM unless noted
About 83,000 compounds went through this panel and 20% of them were active in at least one assay; those are over-represented in the sample as a whole. Activity calls are given as the source filed them. Rule for the calls: active = growth percent below 10; inactive = the rest.
In this exercise, the only acceptable responses are active, inactive

{"columns": ["compound", "target-entity", "class-name"],
 "data": [
  ["C(=N\\Nc1nnn(Cc2ccccc2)n1)/c1ccccc1", "786-0 renal", "inactive"],
  ["CCOC(=O)c1c2c(n3ccc(NC(=O)CCN(CC)CC)cc13)C(=O)c1ncccc1C2=O", "786-0 renal", "inactive"],
  ["O=[N+]([O-])c1cccc(-c2nc3sccn3c2-c2ccnc(NCCCNS(=O)(=O)c3ccc(F)cc3)n2)c1", "786-0 renal", "inactive"]
]}

INPUT: Could you kindly confirm the outcome this assay logged for "COc1nc2c(cc1S(=O)(=O)c1ccccc1)CCc1c-2cnn1Cc1ccccc1" ?
OUTPUT: inactive

INPUT: Look up the recorded call for "O=[N+]([O-])c1cccc(-c2nc3sccn3c2-c2ccnc(NCCCNS(=O)(=O)c3ccc(Br)cc3)n2)c1" in this test.
OUTPUT: inactive

----------
system: M14 melanoma; experiment: NCI-60 one-dose screen, 48 h; settings: 10 µM unless noted
Compounds without any hit were thinned out: in the full panel of roughly 83,000, 20% have a hit. The source made the active and inactive calls. The calls were made as follows: active = growth percent below 10; inactive = the rest.
The reply should name one outcome from active, inactive

Look over these answered cases.
{"columns": ["compound", "class-name"],
 "data": [
  ["CN1CCN(Cc2ccc(NC(=O)c3[nH]ncc3Nc3ncnc4sccc34)cc2)CC1", "inactive"],
  ["CC(=O)Oc1cc2cnc3c4cc(OC(C)=O)c(OC(C)=O)cc4ccc3c2cc1OC(C)=O", "inactive"],
  ["Cc1cc(Nc2nc(N3CCOCC3)nc3ccccc23)n[nH]1", "inactive"],
  ["O=C1/C(=C/c2ccc(Cl)c(Cl)c2)CN(C(=O)CCN2CCC(=NO)CC2)C/C1=C\\c1ccc(Cl)c(Cl)c1", "active"],
  ["Cn1c2ccccc2c2c3c(c4c5ccccc5[nH]c4c21)C(=O)N(N)C3=O", "inactive"]
]}

INPUT: In this assay, the call recorded for "COc1cccc(/C=C2/C(=O)N(Cc3ccco3)SC2=S)c1OC" was what?
OUTPUT: inactive

INPUT: Which outcome was entered for the compound "CCN(CC)CCCNc1cc(OC)cc2nc3cc(Cl)ccc3nc12" in this test?
OUTPUT: active

INPUT: Field: outcome | Entry: "CN(CC(=O)N(Cc1ccc(C2CCCCC2)cc1)c1ccc(C(=O)NO)cc1)S(=O)(=O)c1c(F)c(F)c(F)c(F)c1F"
OUTPUT: inactive

INPUT: What classification did COc1cc(C2CC(=O)Nc3c2cnn3Cc2ccco2)cc2c1OCCO2 (stereo not drawn) end up with in this test?
OUTPUT: inactive

INPUT: What was the test verdict on "COc1ccccc1-c1ccc2c(N)c(C(=O)c3ccc4c(c3)OCO4)sc2n1" ?
OUTPUT: inactive

INPUT: Give the logged outcome of this assay for the following compound: "Cn1c2ccccc2c2c3[nH]c(=O)[nH]c(=O)c3c3c4ccccc4n(C)c3c21"
OUTPUT: inactive

INPUT: Called result for "COc1cc(C#N)cc(OC)c1OCCN(CCOc1c(OC)cc(C#N)cc1OC)S(=O)(=O)c1ccc(C)cc1"
OUTPUT: inactive

----------
system: OVCAR-4 ovarian; experiment: NCI-60 one-dose screen, 48 h (100 = growth as untreated, 0 = no growth, -100 = all killed); details: 10 µM unless noted
This is part of a sample that, as a whole, favours compounds with a hit. Of some 83,000 tested, about 20% had one in any assay.
Overview of reported growth across a group of compounds:
State the answer as a number, implicitly in %.

{"columns": ["compound", "result-unit", "numeric-value"],
 "data": [
  ["O=C1/C(=C/c2ccc(Cl)cc2Cl)CN(S(=O)(=O)c2ccccc2)C/C1=C\\c1ccc(Cl)cc1Cl", "%", 22.6],
  ["COc1ccc(-c2cnoc2-c2cc(OC)c3c(c2)OCCO3)cc1", "%", 50.4],
  ["C=C1CC2(OC1=O)C(=O)N(CCCCCCCN1C(=O)C3(CC(=C)C(=O)O3)c3ccccc31)c1ccccc12 (stereo not given)", "%", 10.2],
  ["CN(C)c1ccc(C2Nc3ccccc3-n3cccc32)cc1 (stereo not given)", "%", 87.1],
  ["CCC(C)[C@@H]1NC(=O)[C@@H]2CCCN2C(=O)[C@H](Cc2ccccc2)NC(=O)[C@@H]2CCCN2C(=O)[C@H](Cc2ccccc2)NC(=O)[C@@H]2CCCN2C(=O)[C@H](Cc2ccccc2)NC1=O (stereo not given in full)", "%", 106]
]}

INPUT: # input compound: "COc1ccc2nc3cc(Cl)ccc3c(N3CCN(c4nccc(Nc5ccc(Cl)cc5)n4)CC3)c2c1" ; wanted: its growth
OUTPUT: 60.7

INPUT: Which value of growth has been reported for "NC1=CC(=O)C(=O)c2ccccc21" in the records?
OUTPUT: 69.3

INPUT: Request the reported growth associated with N#CC1=C(N)Oc2c(ccc3ccccc23)C1c1cccs1 (stereo not given)
OUTPUT: 12.6

INPUT: Item under review: "COc1ccc(S(=O)(=O)NCCNc2nccc(-c3c(-c4cccc(N)c4)nc4sccn34)n2)cc1" . Reported growth?
OUTPUT: 82.4

INPUT: // lookup growth for "COc1cnc2c(c1)C(=O)c1c-2n(CCCN2CCCC2)c(=O)c2cc([N+](=O)[O-])ccc12"
OUTPUT: 10.4

----------
Tested on: SNB-75 CNS
Experiment: NCI-60 one-dose screen, 48 h
Settings: 10 µM unless noted
Experimental: Growth inhibition of the SNB-75 human tumor cell line is measured as a screen for anti-cancer activity. Cells are grown in 96 well plates and exposed to the test compound for 48 hours. Compounds are tested at a single concentration, which is 10^-5 M for most compounds. The reported endpoint is percent growth (GI% or GIPRCNT), where numbers from 0 - 100% represent growth inhibition, and numbers from -100% - 0 represent cell death. For example, a value of 40 represents 60% growth inhibition. […]
This is part of a sample that, as a whole, favours compounds with a hit. Of some 83,000 tested, about 20% had one in any assay. Activity calls are given as the source filed them. Rule for the calls: active = growth percent below 10; inactive = the rest.
Write down the outcome that applies. Available outcomes: true (1) = active, false (0) = inactive

Examples with answers:
{"columns": ["molecule", "class-name"],
 "data": [
  ["COc1ccc(C2CC(=O)Nc3c2c(C)nn3-c2nc3ccccc3[nH]2)cc1 (centres undefined)", "false (0)"],
  ["Cc1ccc(NC(=O)c2sc3nc4c(cc3c2N)C(=O)CCC4)cc1C", "true (1)"],
  ["COc1ccc(-c2cnoc2-c2cc(OC)c3c(c2)OCCO3)cc1", "false (0)"],
  ["COc1cc(-c2nc3ccccc3s2)ccc1NC(=O)COc1ccc(Cl)cc1", "false (0)"],
  ["CCCCCN(CCCCC)CCC[C@@H](C)[C@H]1CC[C@H]2[C@@H]3[C@H](OCCCN)C[C@@H]4C[C@H](OCCCN)CC[C@]4(C)[C@H]3C[C@H](OCCCN)[C@]12C", "false (0)"]
]}

INPUT: Assay outcome for "CN(C)CCCC(=O)Nc1ccc(Cn2nnc3c2C(=O)c2nnn(Cc4ccc(NC(=O)CCCN(C)C)cc4)c2C3=O)cc1" : what was it?
OUTPUT: true (1)

INPUT: Look up the recorded call for C=C1CC[C@@H]2[C@](C)(COC(C)=O)[C@H](OC(C)=O)CC[C@@]2(C)[C@@H]1CC(NCc1ccc(F)cc1)C1=CCOC1=O (some centres undefined) in this test.
OUTPUT: false (0)

INPUT: Which outcome was assigned to "COc1cc(OC)c(/C=C/S(=O)(=O)Cc2cnc(OC)c(N)c2)c(OC)c1" in this test?
OUTPUT: false (0)

INPUT: Give the logged outcome of this assay for the following molecule: "CSc1ccc(N=C=C(c2ccccc2)c2ccccc2)cc1"
OUTPUT: false (0)

----------
# growth per record follows
test system: SN12C renal; test: NCI-60 one-dose screen, 48 h (100 = growth as untreated, 0 = no growth, -100 = all killed); conditions: 10 µM unless noted
The panel holds about 83,000 compounds, 20% with a hit somewhere; the sample as a whole holds those more often.
// note: answer is a bare numeric in %

{"columns": ["smiles", "target-entity", "numeric-value"],
 "data": [
  ["O=c1c2cccc3c(Nc4c(F)cccc4F)ccc(c32)c2nc3ccccc3n12", "SN12C renal", 93.8],
  ["CCCCCCCCSC1=CC(=O)C(OC)=C(OC)C1=O", "SN12C renal", 10.7],
  ["COc1ccc(C/C(C)=C(\\c2ccc(OCCN3CCCCCC3)cc2)c2ccc(OC(=O)C3CCCCC3)cc2)cc1", "SN12C renal", 57.1],
  ["COc1ccc(-c2cc(/C=C3\\C(=O)Nc4ccc(Cl)cc43)[nH]n2)cc1", "SN12C renal", 63.1]
]}

Read the next record carefully.
INPUT: For "CCCCCCCCCc1cc(CN2CCCCC2)c(O)c(CN2CCCCC2)c1" , what is its reported growth?
OUTPUT: 71.9
